Entry source: PubChem BioAssay (NCI)

Test system: KM12 colon
assay-remarks: NCI tumour cell line growth inhibition, 48 h; in the data active = GI50 below about 0.43 µM; inactive = the rest
Answer with one of the outcomes active, inactive

Worked examples, 5 molecules total:
>  <molecule>
N=C(N)SCc1c2ccccc2c(CSC(=N)N)c2ccccc12

>  <qualitative-label>
inactive

$$$$
>  <molecule>
C[C@]12CC[C@@H]3c4cc(O)c(O)cc4CC[C@H]3[C@@H]1CC[C@@H]2O

>  <qualitative-label>
inactive

$$$$
>  <molecule>
COc1cccc(/C=N/NC(=O)c2ccccc2N2CCCC2)c1O

>  <qualitative-label>
inactive

$$$$
>  <molecule>
C#CCN(Cc1nc2cc(C(F)(F)F)ccc2nc1-c1ccccc1)c1ccc(C)cc1

>  <qualitative-label>
inactive

$$$$
>  <molecule>
CCNC(=O)Nc1ccc(Oc2ccnc3ccc4c(ccn4C)c23)cc1

>  <qualitative-label>
inactive

$$$$

Request: What did this assay record as the result for N#Cc1c(N)n2c(nc1=Nc1ccc(Cl)cc1)sc1cc(Cl)ccc12 ?
Result: inactive

Request: // query: CCOC(=O)Nc1nc2ccc(Br)cc2s1
Result: inactive

Request: // query: CCCCCCCCC/C(=N\NC(=O)c1ccncc1)c1ccc(O)c(O)c1O
Result: active
